Tested on: T-47D breast
Test: NCI-60 one-dose screen, 48 h
Details: 10 µM unless noted
This is part of a sample that, as a whole, favours compounds with a hit. Of some 83,000 tested, about 20% had one in any assay. The source made the active and inactive calls. Rule for the calls: active = growth percent below 10; inactive = the rest.
Outcomes: YES (active), NO (inactive)

[[record]]
compound = "N#C/C(=C\\c1ccccc1Cl)c1cc2ccccc2[nH]1"
system_tested = "T-47D breast"
class_assignment = "NO"

[[record]]
compound = "Cc1c(O)c(O)cc2c3c(oc12)CC(c1ccc2c(c1)OCO2)CC3=O (stereo not drawn)"
system_tested = "T-47D breast"
class_assignment = "NO"

[[record]]
compound = "CCC(=C(c1ccc(OCCCN(C)C)cc1)c1ccc(OCCCN(C)C)cc1)c1ccc(Cl)cc1"
system_tested = "T-47D breast"
class_assignment = "YES"

[[record]]
compound = "COC(=O)c1nc(-c2ccccc2)oc1S(=O)(=O)N(C)CCO"
system_tested = "T-47D breast"
class_assignment = "NO"

[[record]]
compound = "Cc1ccc(C(=O)N(CCCN)[C@@H](c2nc3cc(Cl)ccc3c(=O)n2Cc2ccccc2)C(C)C)cc1"
system_tested = "T-47D breast"
class_assignment = "YES"

[[record]]
compound = "COc1ccc(NC(=O)Nc2ccccc2CNc2nc(Nc3ccc(OCCN4CCCC4)cc3)ncc2Cl)cc1"
system_tested = "T-47D breast"
class_assignment = "NO"

[[record]]
compound = "CCCCC1COc2cccc3c2N1C=C/C3=C\\C(=O)N(C)c1cccc(Cl)c1 (stereo not drawn)"
system_tested = "T-47D breast"
class_assignment = "NO"

[[record]]
compound = "CCCCCO/N=C\\c1c2c(O)c3c(O)c(C)c4c(c3c1O)C(=O)C(C)(O/C=C\\C(OC)C(C)C(OC(C)=O)C(C)C(O)C(C)C(O)C(C)/C=C\\C=C(\\C)C(=O)N2)O4 (stereo not drawn)"
system_tested = "T-47D breast"
class_assignment = "NO"

[[record]]
compound = "O=C(Nc1ccccc1C(=O)N/N=C(\\c1ccccc1)c1ccccn1)c1ccccc1"
system_tested = "T-47D breast"
class_assignment = "NO"

[[record]]
compound = "COCCn1cc(-c2csc(-c3cn(C)c4ccc(F)cc34)n2)c2cccnc21"
system_tested = "T-47D breast"
class_assignment = "NO"

[[record]]
compound = "CCCCCCCCCCCCCCCCCCOc1cccc(CC(=O)OCC[N+](CC)(CC)CC)c1"
system_tested = "T-47D breast"
class_assignment = "NO"

[[record]]
compound = "O=C(NCc1ccc(Cn2c(=O)sn(-c3ccc(Cl)cc3)c2=O)cc1)OCc1ccc2c(Cl)cc(Cl)c(O)c2n1"
system_tested = "T-47D breast"
class_assignment = "NO"

[[record]]
compound = "O=C(N=Nc1c(O)[nH]c2ccccc12)Nc1ccc(Br)cc1"
system_tested = "T-47D breast"
class_assignment = "NO"

[[record]]
compound = "COc1cccc(C2C(C#N)=C(N)Oc3cc(OCCCCCC[P+](c4ccccc4)(c4ccccc4)c4ccccc4)ccc32)c1 (stereo not drawn)"
system_tested = "T-47D breast"
class_assignment = "YES"

[[record]]
compound = "COc1ccc(CN2CCc3c(Cl)nc(N)nc3C2=O)c(OC)c1"
system_tested = "T-47D breast"
class_assignment = "NO"

[[record]]
compound = "CCNC(=O)Oc1ccc(/C(=C(/C)Cc2ccc(OC)cc2)c2ccc(OCCN(CC)CC)cc2)cc1"
system_tested = "T-47D breast"
class_assignment = "NO"

[[record]]
compound = "CC[C@]12CN3CCc4c([nH]c5ccccc45)[C@@](C(=O)OC)(c4cc5c(cc4OC)N(C)[C@H]4[C@@](O)(C(=O)OC)[C@H](OC(C)=O)[C@]6(CC)C=CCN7CC[C@]54[C@@H]76)CC(C3)[C@H]1O2 (stereo partly drawn)"
system_tested = "T-47D breast"
class_assignment = "NO"

[[record]]
compound = "C#CCn1cnc2cnc(Nc3cccc(NC(=O)CCl)c3)nc21"
system_tested = "T-47D breast"
class_assignment = "YES"

[[record]]
compound = "CN1CCCc2cc(/C=C3\\SC(=S)N(C(Cc4ccc(O)cc4)C(=O)O)C3=O)ccc21 (stereo not drawn)"
system_tested = "T-47D breast"
class_assignment = "NO"

[[record]]
compound = "C#Cc1cc(C(=O)Nc2ccc(CN3CCN(C)CC3)c(C(F)(F)F)c2)ccc1C"
system_tested = "T-47D breast"
class_assignment = "NO"

[[record]]
compound = "COc1ccc(C(c2cc(OC)c(OC)c(OC)c2)n2ccnc2)cc1O (stereo not drawn)"
system_tested = "T-47D breast"
class_assignment = "NO"

[[record]]
compound = "CN1C(=O)N(C)C2(c3ccccc3)N(CC(=O)Nc3ccccc3O)C(=O)NC12c1ccccc1 (stereo not drawn)"
system_tested = "T-47D breast"
class_assignment = "NO"

[[record]]
compound = "COC1=CC(=O)C(OC)=C(O)C1=O"
system_tested = "T-47D breast"
class_assignment = "NO"

[[record]]
compound = "C#CCOc1cccc(Nc2ncc3ncn(C4CCN(C(=O)CCl)C4)c3n2)c1 (stereo not drawn)"
system_tested = "T-47D breast"
class_assignment = "YES"

[[record]]
compound = "CN1CCN(CCCN2c3ccccc3Sc3ccc(Cl)cc32)CC1"
system_tested = "T-47D breast"
class_assignment = "NO"

[[record]]
compound = "N#CC1=C(N)Oc2c(sc3c(Br)cccc23)C1c1ccccn1 (stereo not drawn)"
system_tested = "T-47D breast"
class_assignment = "NO"

[[record]]
compound = "CCCCCCCCN(CCCCCCCC)CC(O)c1cc(Cl)ccc1OC (stereo not drawn)"
system_tested = "T-47D breast"
class_assignment = "NO"

[[record]]
compound = "CCOC(=O)C1=C(C)N=C2SC=C(c3ccc(F)cc3)N2[C@H]1c1cn(-c2ccccc2)nc1-c1ccc(Cl)cc1"
system_tested = "T-47D breast"
class_assignment = "NO"

[[record]]
compound = "COc1ccc(-c2ccc(-c3ccc(C(=N)N)cn3)s2)cc1Cl"
system_tested = "T-47D breast"
class_assignment = "YES"

[[record]]
compound = "Cn1cc(-c2csc(-c3c[nH]c4ccc(F)cc34)n2)c2cnccc21"
system_tested = "T-47D breast"
class_assignment = "YES"

[[record]]
compound = "COc1cc(OC)cc(-c2ccc(-c3ccc(C(=N)N)cn3)s2)c1"
system_tested = "T-47D breast"
class_assignment = "NO"

[[record]]
compound = "CCOC(=O)c1nnn(Cc2cc(=O)oc3c2ccc2ccccc23)c1C"
system_tested = "T-47D breast"
class_assignment = "NO"

[[record]]
compound = "Cc1cc2nc(C(Cl)Cl)nc(-c3ccc(Cl)cc3)n2n1"
system_tested = "T-47D breast"
class_assignment = "NO"

[[record]]
compound = "CCCCCCCC/C=C\\CCCCCCCCOc1ccccc1CC(=O)NCC[N+]1(C)CCOCC1"
system_tested = "T-47D breast"
class_assignment = "NO"

[[record]]
compound = "CCCCCCCCn1ccc2cc(NC(=O)CN3CCN(c4nc(C)cc(N5CCCCC5)n4)CC3)ccc21"
system_tested = "T-47D breast"
class_assignment = "NO"

[[record]]
compound = "Cc1ccc(C(=O)c2ccc(CC(=O)N=Nc3c(O)[nH]c4ccc(OC(F)(F)F)cc34)n2C)cc1"
system_tested = "T-47D breast"
class_assignment = "NO"

[[record]]
compound = "COc1cc(C=O)ccc1Oc1ccc([N+](=O)[O-])cc1[N+](=O)[O-]"
system_tested = "T-47D breast"
class_assignment = "NO"

[[record]]
compound = "CC(C)(C)c1cc(C(C)(C)c2ccccc2)cc(Cc2cc(C(C)(C)c3ccccc3)cc(C(C)(C)C)c2O)c1O"
system_tested = "T-47D breast"
class_assignment = "NO"


The measured values listed here are drawn from PubChem BioAssay (NCI).
